condition description: Crystal; DTA
test readout: Normal melting temperature (°C)

// solved cases for Normal melting temperature follow
[
  {
    "compound": "CC[N+](CC)(CC)CC.[Cl-] [tetraethylammonium chloride]",
    "Normal melting temperature (°C)": 253.63
  },
  {
    "compound": "C[N+](C)(C)C.[Cl-] [tetramethylammonium chloride]",
    "Normal melting temperature (°C)": 339.72
  },
  {
    "compound": "CCCCCCCCCCCCCC(=O)O [tetradecanoic acid]",
    "Normal melting temperature (°C)": 53.88
  },
  {
    "compound": "CCCCCCCCCCCC(=O)O [dodecanoic acid]",
    "Normal melting temperature (°C)": 44.33
  },
  {
    "compound": "CCCCCCCCCCCCCCCC(=O)O [hexadecanoic acid]",
    "Normal melting temperature (°C)": 63.69
  }
]

a. CCCCCCCCCCCCCCCCCC(=O)O [octadecanoic acid]
b. CCCCCCCCCC(=O)O [decanoic acid]
Hello, I am sorting some records. Could you say if a or b has the smaller Normal melting temperature value? Please reply using the label of the selected record.
b

* * *

procedure text: Molar enthalpy of transition or fusion
condition description: Crystal; DSC
test readout: Molar enthalpy of transition or fusion (kJ/mol)

[
  {
    "compound": "CCCCCCCCCCCC(=O)O [dodecanoic acid]",
    "test readout": "Molar enthalpy of transition or fusion",
    "unit string": "kJ/mol",
    "test result": 37.8
  },
  {
    "compound": "CCCCCCCCCCCCCCCC(=O)O [hexadecanoic acid]",
    "test readout": "Molar enthalpy of transition or fusion",
    "unit string": "kJ/mol",
    "test result": 51
  },
  {
    "compound": "CC[N+](CC)(CC)CC.[Cl-] [tetraethylammonium chloride]",
    "test readout": "Molar enthalpy of transition or fusion",
    "unit string": "kJ/mol",
    "test result": 51.2
  }
]

A. CCCCCCCCCCCCCC(=O)O [tetradecanoic acid]
B. CCCCCCCCCCCCCCCCCC(=O)O [octadecanoic acid]
C. CCCCCCCCCC(=O)O [decanoic acid]
# rank_down: sort by Molar enthalpy of transition or fusion, max first Answer by writing out the labels in the requested order.
B, A, C

# credit: the NIST ThermoML archive (doi:10.1016/j.fluid.2017.04.007)
